compounds and their reported melting point
The figure you give is taken to be in °C; do not add the unit.

Some solved cases for reference:
compound | units | recordedMeasurement
CC(C)CCC[C@@H](C)[C@H]1CC[C@H]2[C@@H]3CC[C@@H]4C[C@H](O)CC[C@]4(C)[C@H]3CC[C@]12C | °C | 143
CCOC(=O)N1C(=O)c2ccccc2C1=O | °C | 91
CC(C)CC(=O)CC(C)C | °C | -41.5
CCCCOC(=O)CC(=O)OCCCC | °C | -83
O=C1c2ccccc2C(=O)c2c1ccc1ccccc21 | °C | 170

[ask] Entry "Clc1ccccc1I" : reported melting point = ?
[reply] 0.7

[ask] Entry to check: "Oc1ccc2c(O)cccc2c1"
[reply] 138
